Target: Mitogen-activated protein kinase 1 (Homo sapiens)
Experiment: Inhibition of ERK2 at 10 uM by HTRF assay relative to control
Measurement type: inhibition (%)

> print(dat)
                               entry.smiles                             system.tested  unit.label  value.measured
1  O=C(NCCc1ccc(O)cc1)c1cccc(Nc2nccc(Nc3ccc4ncsc4c3)n2)c1  Mitogen-activated protein kinase 1 (Homo sapiens)           %               0
2  CN(CCc1ccccn1)C(=O)[C@@H]1CCCN1c1nccc(Nc2ccccc2)n1  Mitogen-activated protein kinase 1 (Homo sapiens)           %               3
3  Cc1cccc(Nc2ncnc3c2CN(C(=O)c2ccc(N(C)C)c4ccccc24)CC3)c1  Mitogen-activated protein kinase 1 (Homo sapiens)           %               0
4  Cc1cccc(N(C)c2cc(Nc3cccc(C(=O)N(C)CCc4ccccn4)c3)ncn2)c1  Mitogen-activated protein kinase 1 (Homo sapiens)           %               6
5  Cc1cccc(Oc2ccnc(N3CCC[C@H]3C(=O)NCc3cccnc3)n2)c1  Mitogen-activated protein kinase 1 (Homo sapiens)           %               0
6  O=C(CN1CCN(c2ncnc3c2CN(Cc2ccccc2)CC3)CC1)Nc1cc(F)ccc1F  Mitogen-activated protein kinase 1 (Homo sapiens)           %               0
7  Cc1cccc(N(C)c2cc(Nc3ccc(CC(=O)Nc4ccc5ncsc5c4)cc3)ncn2)c1  Mitogen-activated protein kinase 1 (Homo sapiens)           %               2
8  COc1ccc(-c2noc(CN3CCN(c4cc(Nc5cccc(O)c5)ncn4)CC3)n2)cc1  Mitogen-activated protein kinase 1 (Homo sapiens)           %               1
9  COc1cccc(Nc2cc(Nc3cccc(C(=O)NCCCn4ccnc4)c3)nc(N)n2)c1  Mitogen-activated protein kinase 1 (Homo sapiens)           %               1
